Measured Kp, listed per entry.
- method: PET imaging studies in rhesus monkeys
- conditionInfo: rhesus monkey, in vivo, Distribution volume (VT), Amygdala; 1T model
Lab note: record the figure alone, no unit after it.

In the examples that follow, each entry is paired with its recorded Kp.
>>> print(df.to_string())
                                   molecule  observedresult
0  Cc1cnccc1CN1CC(c2cc(F)cc(F)c2)CC1=O (stereo not drawn) [^18F-5]            20.5
1  Cc1cnccc1CN1CC(c2cccc(F)c2)CC1=O (stereo not drawn) [^18F-11]             8.7

Kp recorded for this molecule, O=C1CC(c2cc(F)c(F)c(F)c2)CN1Cc1ccncc1F (stereo not drawn) [^18F-10] , is 9.8
